Listed here are compounds together with their documented pIC50.
# Test system: KINGS-1;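 note: cell viability assay measuring suppression of KINGS-1 cell growth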
# ASSAY PROCEDURE: cells
# Format: functional, cell-based, Homo sapiens
# EXPERIMENTAL PARAMETERS: Homo sapiens, KINGS-1
# Description: SANGER: Inhibition of human KINGS-1 cell growth in a cell viability assay.
pIC50: −log10 of the molar value.
READOUT LABEL: pIC50

smiles_representation=CC1(C)CCC(c2ccc(Cl)cc2)=C(CN2CCN(c3ccc(C(=O)NS(=O)(=O)c4ccc(N[C@H](CCN5CCOCC5)CSc5ccccc5)c(S(=O)(=O)C(F)(F)F)c4)cc3)CC2)C1 assay_result="< 5.70"
smiles_representation=Cc1ccc(-n2nc(C(C)(C)C)cc2NC(=O)Nc2ccc(OCCN3CCOCC3)c3ccccc23)cc1 assay_result="< 5.00"
smiles_representation=CN(NC(=O)CC(=O)NN(C)C(=S)c1ccccc1)C(=S)c1ccccc1 assay_result=6.75
smiles_representation=NC(=O)c1ccc(N(C(N)=O)c2c(F)cccc2F)nc1-c1ccc(F)cc1F assay_result="< 5.70"
smiles_representation=O=C1NC(=O)c2c1c(-c1ccccc1Cl)cc1[nH]c3ccc(O)cc3c21 assay_result="< 5.70"
smiles_representation=COc1cc(N2CCC(N3CCN(C)CC3)CC2)ccc1Nc1ncc(Cl)c(Nc2ccccc2S(=O)(=O)C(C)C)n1 assay_result="< 5.70"

* * *

# Test system: SNU-C2B;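 note: cell viability readout used to measure compound-driven suppression of SNU-C2B cell proliferation, IC50 marking half-maximal growth inhibition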
# ASSAY PROCEDURE: cells
# Type: functional, cell-based
# EXPERIMENTAL PARAMETERS: Homo sapiens
# Description: SANGER: Inhibition of human SNU-C2B cell growth in a cell viability assay.
READOUT LABEL: IC50

compound=COc1ccc(N(C(=O)Oc2c(C)cccc2C)c2ccnc(Nc3ccc(N4CCN(C)CC4)cc3)n2)c(OC)c1 target_system=SNU-C2B assay_result="> 5120 nM"
compound=C[C@@H](Oc1cc(-c2cnn(C3CCNCC3)c2)cnc1N)c1c(Cl)ccc(F)c1Cl target_system=SNU-C2B assay_result="> 2000 nM"
compound="C=CC(=O)N1CCCC(Nc2nc(Nc3ccc(N(C)C(=O)CC)cc3)nc3[nH]cnc23)C1 (stereo not drawn)" target_system=SNU-C2B assay_result="> 10200 nM"
compound=CS(=O)(=O)N1CCN(Cc2cc3nc(-c4cccc5[nH]ncc45)nc(N4CCOCC4)c3s2)CC1 target_system=SNU-C2B assay_result="> 4000 nM"
compound=O=C1NC(=O)c2c1c(-c1ccccc1Cl)cc1[nH]c3ccc(O)cc3c21 target_system=SNU-C2B assay_result="> 2000 nM"
compound=Cc1ccc(-n2nc(C(C)(C)C)cc2NC(=O)Nc2ccc(OCCN3CCOCC3)c3ccccc23)cc1 target_system=SNU-C2B assay_result="> 10000 nM"
compound=Cc1cc(N2CCOCC2)cc2[nH]c(-c3c(NC[C@@H](O)c4cccc(Cl)c4)cc[nH]c3=O)nc12 target_system=SNU-C2B assay_result="2710 nM"
compound=COc1ccc(-c2cc3nccn3c(Nc3ncccc3C(N)=O)n2)cc1OC target_system=SNU-C2B assay_result="1840 nM"

* * *

Listed here are compounds together with their documented IC50.
# Test system: YKG-1;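 note: cell growth inhibition, read out with a viability assay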
# ASSAY PROCEDURE: cells
# Assay type: functional, cell-based
# EXPERIMENTAL PARAMETERS: Homo sapiens
# Description: SANGER: Inhibition of human YKG-1 cell growth in a cell viability assay.
READOUT LABEL: IC50

compound="CC1(C)CCC(c2ccc(Cl)cc2)=C(CN2CCN(c3ccc(C(=O)NS(=O)(=O)c4ccc(N[C@H](CCN5CCOCC5)CSc5ccccc5)c(S(=O)(=O)C(F)(F)F)c4)cc3)CC2)C1 [NAVITOCLAX]" readout_label=IC50 assay_result="> 2 µM"
compound="Cc1ccc(C(=O)Nc2ccc(CN3CCN(C)CC3)c(C(F)(F)F)c2)cc1C#Cc1cnc2cccnn12 [PONATINIB]" readout_label=IC50 assay_result="> 0.512 µM"
compound="CS(=O)(=O)N1CCN(Cc2cc3nc(-c4cccc5[nH]ncc45)nc(N4CCOCC4)c3s2)CC1 [PICTILISIB]" readout_label=IC50 assay_result="3.04 µM"

* * *

# Tested on: NCI-H1838;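 note: growth inhibition of NCI-H1838 cells, determined with a cell viability readout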
# ASSAY PROCEDURE: cells
# Type: functional, cell-based, Homo sapiens
# EXPERIMENTAL PARAMETERS: nci-h1838
# Description: SANGER: Inhibition of human NCI-H1838 cell growth in a cell viability assay.
pIC50: −log10 of the molar value. Where a SMILES comes first, the peptide text is derived from it. The star is where a group is joined. Cbz = O=C(OCc1ccccc1)*
READOUT LABEL: pIC50

compound="CC(C)C[C@@H](C=O)NC(=O)[C@H](CC(C)C)NC(=O)[C@H](CC(C)C)NC(=O)OCc1ccccc1 [MG-132] (Cbz-Leu-Leu-Leu-aldehyde)" assay_result="< 6.00"

* * *

# Tested on: GI-1
# ASSAY PROCEDURE: cells
# Type: functional, cell-based, Homo sapiens
# EXPERIMENTAL PARAMETERS: gi-1
# Description: SANGER: Inhibition of human GI-1 cell growth in a cell viability assay.
Where a SMILES comes first, the peptide text is derived from it. The star is where a group is joined. Cbz = O=C(OCc1ccccc1)*
READOUT LABEL: IC50

compound="CC(C)C[C@@H](C=O)NC(=O)[C@H](CC(C)C)NC(=O)[C@H](CC(C)C)NC(=O)OCc1ccccc1 [MG-132] (Cbz-Leu-Leu-Leu-aldehyde)" assay_result="> 1 µM"

* * *

# Tested on: MKN-7;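 note: growth inhibition of MKN-7 cells, read out with a cell viability assay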
# ASSAY PROCEDURE: cells
# Type: functional, cell-based
# EXPERIMENTAL PARAMETERS: Homo sapiens
# Description: SANGER: Inhibition of human MKN7 cell growth in a cell viability assay.
READOUT LABEL: IC50

smiles_representation=Cc1ccc(-n2nc(C(C)(C)C)cc2NC(=O)Nc2ccc(OCCN3CCOCC3)c3ccccc23)cc1 assay_result="> 10 µM"
smiles_representation=COc1ccc(-c2cc3nccn3c(Nc3ncccc3C(N)=O)n2)cc1OC assay_result="> 8 µM"
smiles_representation=O=C1NC(=O)c2c1c(-c1ccccc1Cl)cc1[nH]c3ccc(O)cc3c21 assay_result="> 2 µM"
smiles_representation=CCCCCCCCCCCC1=C(O)C(=O)C=C(O)C1=O assay_result="> 32 µM"

* * *

# System: HSC-4
# ASSAY PROCEDURE: cells
# Type: functional, cell-based
# EXPERIMENTAL PARAMETERS: Homo sapiens
# Description: SANGER: Inhibition of human HSC-4 cell growth in a cell viability assay.
Listed here are molecules together with their documented IC50.
READOUT LABEL: IC50

molecule="CC1=C(/C=C/C(C)=C/C=C/C(C)=C/C(=O)O)C(C)(C)CCC1 [TRETINOIN]" assay_result="> 10 µM"
molecule=COC(=O)[C@H](CCSC)NC(=O)c1ccc(NC[C@@H](N)CS)cc1-c1ccccc1 assay_result="> 1.02 µM"

* * *

# System: LU-139
# ASSAY PROCEDURE: cells
# Assay type: functional, cell-based, Homo sapiens
# EXPERIMENTAL PARAMETERS: Homo sapiens, LU-139
# Description: SANGER: Inhibition of human LU-139 cell growth in a cell viability assay.
pIC50: −log10 of the molar value.
READOUT LABEL: pIC50

compound="CCCCCCCCCCCC1=C(O)C(=O)C=C(O)C1=O [EMBELIN]" assay_result="< 4.49"
compound="NC(=O)c1ccc(N(C(N)=O)c2c(F)cccc2F)nc1-c1ccc(F)cc1F [VX-702]" assay_result=6.71
compound="C=CC(=O)N1CCCC(Nc2nc(Nc3ccc(N(C)C(=O)CC)cc3)nc3[nH]cnc23)C1 (stereo not given)" assay_result="< 4.99"
compound="Cc1ccc(-n2nc(C(C)(C)C)cc2NC(=O)Nc2ccc(OCCN3CCOCC3)c3ccccc23)cc1 [DORAMAPIMOD]" assay_result="< 5.00"
compound="CC1(C)CCC(c2ccc(Cl)cc2)=C(CN2CCN(c3ccc(C(=O)NS(=O)(=O)c4ccc(N[C@H](CCN5CCOCC5)CSc5ccccc5)c(S(=O)(=O)C(F)(F)F)c4)cc3)CC2)C1 [NAVITOCLAX]" assay_result=6.69
compound="C[C@@H](Oc1cc(-c2cnn(C3CCNCC3)c2)cnc1N)c1c(Cl)ccc(F)c1Cl [CRIZOTINIB]" assay_result="< 5.70"
compound=NC(=O)c1cccc(-c2cc(Nc3ccc(OC(F)(F)F)cc3)ncn2)c1 assay_result="< 5.89"
compound="C/C(=C\\c1csc(C)n1)[C@@H]1C[C@@H]2O[C@]2(C)CCC[C@H](C)[C@H](O)[C@@H](C)C(=O)C(C)(C)[C@@H](O)CC(=O)O1 [PATUPILONE]" assay_result="< 7.49"
compound=COc1ccc(-c2cc3nccn3c(Nc3ncccc3C(N)=O)n2)cc1OC assay_result="< 5.10"
compound="COc1cc(N2CCC(N3CCN(C)CC3)CC2)ccc1Nc1ncc(Cl)c(Nc2ccccc2S(=O)(=O)C(C)C)n1 [TAE-684]" assay_result="< 5.70"

* * *

# Tested on: SK-MEL-1;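 note: growth inhibition of human SK-MEL-1 cells, read out by a cell viability assay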
# ASSAY PROCEDURE: cells
# Assay type: functional, cell-based, Homo sapiens
# EXPERIMENTAL PARAMETERS: Homo sapiens, SK-MEL-1
# Description: SANGER: Inhibition of human SK-MEL-1 cell growth in a cell viability assay.
Listed here are molecules together with their documented IC50.
READOUT LABEL: IC50

smiles_representation=NC(=O)Nc1cc(-c2cccc(F)c2)sc1C(=O)N[C@H]1CCCNC1 assay_result="> 2 µM"
smiles_representation=O=S(=O)(O)c1ccc2cc(/N=N/c3cc(S(=O)(=O)O)c4cccnc4c3O)ccc2c1 assay_result="> 16 µM"
smiles_representation=CCCCCCCCCCCC1=C(O)C(=O)C=C(O)C1=O assay_result="> 32 µM"
smiles_representation=CC1(C)CCC(c2ccc(Cl)cc2)=C(CN2CCN(c3ccc(C(=O)NS(=O)(=O)c4ccc(N[C@H](CCN5CCOCC5)CSc5ccccc5)c(S(=O)(=O)C(F)(F)F)c4)cc3)CC2)C1 assay_result="> 2 µM"
smiles_representation=O=C(NCCCNc1nc(Nc2cccc(NC(=O)N3CCCC3)c2)ncc1I)c1cccs1 assay_result="> 5 µM"
